Source listed as paper PMC9688318.

Target: T1, PPR2.0 t2 (synthetic)
T1 chain: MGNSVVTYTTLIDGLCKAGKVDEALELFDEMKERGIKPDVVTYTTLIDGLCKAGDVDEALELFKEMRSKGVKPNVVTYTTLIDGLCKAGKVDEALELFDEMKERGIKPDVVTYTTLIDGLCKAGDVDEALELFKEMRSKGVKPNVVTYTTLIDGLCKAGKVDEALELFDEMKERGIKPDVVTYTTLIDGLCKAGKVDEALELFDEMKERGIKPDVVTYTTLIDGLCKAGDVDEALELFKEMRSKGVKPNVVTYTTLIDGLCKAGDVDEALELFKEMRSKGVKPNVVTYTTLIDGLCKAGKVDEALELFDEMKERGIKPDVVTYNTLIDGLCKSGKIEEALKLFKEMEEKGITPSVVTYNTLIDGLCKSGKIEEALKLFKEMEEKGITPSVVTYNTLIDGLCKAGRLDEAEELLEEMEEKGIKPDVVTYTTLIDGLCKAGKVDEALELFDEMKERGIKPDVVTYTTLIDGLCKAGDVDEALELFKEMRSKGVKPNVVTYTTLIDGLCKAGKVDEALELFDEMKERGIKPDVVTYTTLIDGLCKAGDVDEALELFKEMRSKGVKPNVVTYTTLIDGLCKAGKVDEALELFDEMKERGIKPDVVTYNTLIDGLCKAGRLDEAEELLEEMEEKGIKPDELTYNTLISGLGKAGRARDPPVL
Assay: EMSA; 20 mM Tris-HCl pH 8.0, 150 mM NaCl, 0.5% NP-40, 1 mM DTT, 1 mM EDTA; 20 nM RNA
Conditions: tags: N-terminal SBP, C-terminal His6, kept; label: biotin
Endpoint Name: pKd
// field semantics: pKd = negative decimal log of concentration (mol/L)

// pKd lookup, key: GACAUGCGAGAGGAAGCCUGAGAGUGACUG (ssRNA) [Probe_t2]
8.40
